Tested on: Echinochloa crus-galli (ECHCG)
Assay: Post-emergence Test (glasshouse, percentage damage to the plant)
Type: in vivo
Settings: post-emergence spray, 1000 g/ha unless otherwise stated, evaluated after 13 days
Excerpt: […]
measured.attribute: Post-emergence Test ECHCG, percentage damage to the plant (five-point scale)

CCn1c(C)c(-c2cc(Cl)cc(C(F)(F)F)c2)c(=O)c(C(=O)O)c1-c1ccc(Cl)c(Cl)c1 ... 1 (1=0-20%)
CCn1c(C)c(-c2ccc(C#N)cc2)c(=O)c(C(=O)O)c1-c1ccc(Cl)c(Cl)n1 ... 4 (4=61-80%)
CCn1c(C)c(-c2ccccc2C)c(=O)c(C(=O)O)c1-c1ccc(Cl)c(Cl)c1 ... 1 (1=0-20%)
CCOC(=O)c1c(-c2ccc(Br)c(F)c2)n(CC)c(C)c(-c2ccc(Cl)cc2)c1=O ... 2 (2=21-40%)
CCn1c(C)c(-c2ccc(Cl)c(C(=O)NC3CC3)c2)c(=O)c(C(=O)O)c1-c1ccc(Cl)c(Cl)c1 ... 1 (1=0-20%)
CCn1c(C)c(-c2ccc(Cl)cc2Cl)c(=O)c(C(=O)O)c1-c1ccc(Cl)c(Cl)c1 ... 4 (4=61-80%)
CCn1c(C)c(-c2cc(F)ccc2Cl)c(=O)c(C(=O)O)c1-c1ccc(Cl)cc1 ... 2 (2=21-40%)
CCn1c(C)c(-c2cccc(Cl)c2)c(=O)c(C(=O)O)c1-c1ccc(Cl)c(Cl)n1 ... 0

Req: Please give the measured Post-emergence Test ECHCG, percentage damage to the plant (five-point scale) for this molecule: CCn1c(C)c(-c2cccc(C(F)F)c2)c(=O)c(C(=O)O)c1-c1ccc(Cl)c(Cl)c1
Resp: 1 (1=0-20%)

Req: Fill in the blank: the reported Post-emergence Test ECHCG, percentage damage to the plant (five-point scale) of CCOc1cc(C)cc(-c2c(C)n(CC)c(-c3ccc(Cl)c(Cl)c3)c(C(=O)O)c2=O)c1 is ____.
Resp: 1 (1=0-20%)

Req: Look at this molecule and give its reported Post-emergence Test ECHCG, percentage damage to the plant (five-point scale). CCn1c(C)c(-c2cncc(Cl)c2)c(=O)c(C(=O)O)c1-c1ccc(Cl)c(Cl)c1
Resp: 3 (3=41-60%)

Req: What does the data say about its Post-emergence Test ECHCG, percentage damage to the plant (five-point scale)? Entry: CCn1c(-c2ccc(Cl)c(Cl)c2)c(C(=O)O)c(=O)c(-c2ccc(Cl)cc2)c1C(F)(F)F
Resp: 0

Req: Given the entry CCn1c(C)c(-c2cccc(C#N)c2)c(=O)c(C(=O)O)c1-c1ccc(Cl)c(Cl)n1 , report its measured Post-emergence Test ECHCG, percentage damage to the plant (five-point scale).
Resp: 2 (2=21-40%)

Req: Fill in: Post-emergence Test ECHCG, percentage damage to the plant (five-point scale) of CCn1c(C)c(-c2ccc(Cl)cc2C)c(=O)c(C(=O)O)c1-c1ccc(Cl)c(Cl)c1 is ___
Resp: 4 (4=61-80%)

Req: Consider the molecule CCn1c(C)c(-c2cc(C)cs2)c(=O)c(C(=O)O)c1-c1ccc(Cl)cc1 and give its measured Post-emergence Test ECHCG, percentage damage to the plant (five-point scale).
Resp: 1 (1=0-20%)

Req: Param item = CCn1c(C)c(-c2ccccn2)c(=O)c(C(=O)O)c1-c1ccc(Cl)c(Cl)c1.Cl ; retrieve measured Post-emergence Test ECHCG, percentage damage to the plant (five-point scale).
Resp: 2 (2=21-40%)
